assay: Equilibrium solubility of API in different media; assay type: physicochemical; details: pH 8.0 phosphate buffer solution (PBS), pH 8.0 PBS, 37 °C, 200 rpm, n = 3, read-out: Solubility of API, pH 8.0 PBS
measured-attribute: solubility at 24 h (µg/mL)
Expressed in µg/mL, but write only the number.

Give the measured solubility at 24 h of `O=C(NC[C@H]1CN(c2ccc(N3CCOCC3=O)cc2)C(=O)O1)c1ccc(Cl)s1` . 5.87

----------
assay: Equilibrium solubility of API in different media; format: physicochemical; conditions: pH 1.0 HCl solution, 37 °C, 200 rpm, n = 3, read-out: Solubility of API, pH 1.0 HCl
measured-attribute: solubility at 24 h (µg/mL)
Lab book: enter the figure in µg/mL, no units written.

For `O=C(NC[C@H]1CN(c2ccc(N3CCOCC3=O)cc2)C(=O)O1)c1ccc(Cl)s1` , what is its reported solubility at 24 h? 6.84
